- system-tested: HTRA1, Q92743
- Sequence (Q92743 360-477): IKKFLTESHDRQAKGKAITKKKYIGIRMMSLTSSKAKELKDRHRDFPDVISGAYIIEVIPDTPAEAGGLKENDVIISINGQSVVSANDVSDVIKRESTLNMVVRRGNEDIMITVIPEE
- procedure-summary: holdup assay
- Set-up: key: below the threshold = too weak to quantify, mostly under pKd 3.1 to 4
- experimental-context: plain residues with an end cap or a label only (N-terminal biotin on a linker: ado-ado)

| binder | pKd |
| --- | --- |
| KKTPVSRSHL [SLC22A3, O75751] | 3.61 |
| KEKASTETEC [TRPM1, Q7Z4N2] | 3.62 |
| STYCDYTIEI [FAM71C, Q8NEG0] | 5.38 |
| SGDGKTSVWI [GJC1, P36383] | 4.93 |
| NKSEPFLTWL [WWTR1, Q9GZV5] | 4.91 |
| DFKHTKSFII [JAM2, P57087] | 4.97 |
| PSVYSRSQYV [CLDN8, P56748] | 5.03 |
